- Assay type: in vivo, human (healthy women)
- test parameters: female, human, plasma, intravenous, 240 mg, AUCτ,ss, part B, 240 mg q.d., steady state
result type: AUC (ng·h/mL)
Report the figure in ng·h/mL without appending any unit label.

If you can, please state the reported AUC value of COc1cccc(N2CCN(C3=Nc4c(F)cccc4[C@H](CC(=O)O)N3c3cc(C(F)(F)F)ccc3OC)CC2)c1 . 33600

====

- Format: in vivo, human (healthy women)
- test parameters: female, human, plasma, intravenous, 240 mg, AUC0–∞ after a single dose, part B, 240 mg single dose
result type: AUC(0-inf) (ng·h/mL)
Report the figure in ng·h/mL without appending any unit label.

If you can, please state the reported AUC(0-inf) value of COc1cccc(N2CCN(C3=Nc4c(F)cccc4[C@H](CC(=O)O)N3c3cc(C(F)(F)F)ccc3OC)CC2)c1 . 27500

====

- Assay type: in vivo, human (healthy women)
- test parameters: female, human, plasma, iv, 960 mg
result type: Tmax (h)
Report the figure in h without appending any unit label.

If you can, please state the reported Tmax value of COc1cccc(N2CCN(C3=Nc4c(F)cccc4[C@H](CC(=O)O)N3c3cc(C(F)(F)F)ccc3OC)CC2)c1 [Letermovir] . 1

====

- Assay type: in vivo, human (healthy women)
- test parameters: female, human, plasma, iv, 120 mg
result type: Tmax (min)
Report the figure in min without appending any unit label.

If you can, please state the reported Tmax value of COc1cccc(N2CCN(C3=Nc4c(F)cccc4[C@H](CC(=O)O)N3c3cc(C(F)(F)F)ccc3OC)CC2)c1 [Letermovir] . 30

====

- Type: in vivo, human (healthy women)
- test parameters: part A, single 240 mg i.v., 30-min infusion, N=6; mean ± SD
result type: AUC0–last/D (µg·h/mL/mg)
Report the figure in µg·h/mL/mg without appending any unit label.

If you can, please state the reported AUC0–last/D value of COc1cccc(N2CCN(C3=Nc4c(F)cccc4[C@H](CC(=O)O)N3c3cc(C(F)(F)F)ccc3OC)CC2)c1 . 0.14

====

- Format: in vivo, human (healthy women)
- test parameters: part A, single 120 mg i.v., 30-min infusion, N=6; mean ± SD
result type: AUC0–last/D
Number plus unit, in that order.

If you can, please state the reported AUC0–last/D value of COc1cccc(N2CCN(C3=Nc4c(F)cccc4[C@H](CC(=O)O)N3c3cc(C(F)(F)F)ccc3OC)CC2)c1 [Letermovir] . 0.11 µg·h/mL/mg

====

- Assay type: in vivo, human (healthy women)
- test parameters: female, human, plasma, iv, 480 mg
result type: Tmax (h)
Report the figure in h without appending any unit label.

If you can, please state the reported Tmax value of COc1cccc(N2CCN(C3=Nc4c(F)cccc4[C@H](CC(=O)O)N3c3cc(C(F)(F)F)ccc3OC)CC2)c1 . 1
